activity change, positive = activation listing for selected compounds.
Assay: qHTS assay to identify small molecule agonists of the estrogen related receptor (ERR) signaling pathway from Tox21 library (AID 1224849); note: % is set by controls: 0 for no effect and ±100 for the full control effect; nearly all actives have a fitted effect of over 15% in size
Conditions: ERR reporter cell line, ONE-Glo luciferase, 18 h; at 92.4 µM (top of the series) unless noted
Active and inactive are the calls of the source. Calls come from the whole dose curve.

Some compounds with known activity change, positive = activation results, for comparison:
[
  {
    "Compound": "O=C1CN=C(c2ccccc2)c2cc(Cl)ccc2N1CC1CC1",
    "activity change, positive = activation": "-41.3% (inactive)"
  },
  {
    "Compound": "COP(=O)(OC)O/C(=C/Cl)c1cc(Cl)c(Cl)cc1Cl",
    "activity change, positive = activation": "-67.5% (inactive)"
  },
  {
    "Compound": "O=C(Nc1ccccc1)Nc1ccnc(Cl)c1",
    "activity change, positive = activation": "-55.6% (inactive)"
  },
  {
    "Compound": "ClP(Cl)(Cl)(Cl)Cl",
    "activity change, positive = activation": "0.0891% (inactive)"
  },
  {
    "Compound": "O=C1C(Cl)C(CCl)CN1c1cccc(C(F)(F)F)c1 (stereo unspecified)",
    "activity change, positive = activation": "-29.4% (inactive)"
  }
]

GET /values?readout=activity change, positive = activation&item= CC1Sc2c(C(=O)O)c(=O)c3cc(F)c(N4CCNCC4)cc3n21 (stereo unspecified)
11.7% [at 42.5 µM] (inactive)

GET /values?readout=activity change, positive = activation&item= O=Cc1ccc(Cl)cc1Cl
-10.7% (inactive)

GET /values?readout=activity change, positive = activation&item= CC(c1ccc(O)cc1)(c1ccc(O)cc1)c1ccc(O)cc1
-42.4% (inactive)

GET /values?readout=activity change, positive = activation&item= Cc1ccccc1CCl
7.48% (inactive)

GET /values?readout=activity change, positive = activation&item= O=C(N[C@H](c1ccccc1)[C@@H]1CN2CCC1CC2)c1c(Cl)ccc(C(F)(F)F)c1Cl
-42.3% (inactive)

GET /values?readout=activity change, positive = activation&item= ClC=C(Cl)Cl
-0.0629% (inactive)
